Reported pIC50 values for a set of binders
- TARGET DESC: SARS-CoV-2 RBD.mmh (Spike amino acids Arg319-Phe541 with C-terminal myc-myc-6-Histidine tag) (SARS-CoV-2, UniProt P0DTC2 319-541)
pIC50: −log10 of the molar value.
ASSAY READOUT: pIC50

[[record]]
binder = "mAb15160 (antibody, V domains shown) VH: EVQLVESGGGLVQPGGSLRLSCSASGFTFSRYAMYWVRQAPGKGLEYVSAISSDGGSTYDADSVKGRFTISRANSKNTLYLQMSSLRAEDTAVYYCVKGLRELLYYYYGMDVWGQGTTVTVSS VL: DIQMTQSPSSLSASVGDRVTITCRAGQSISSFLNWYQQKPGKAPKLLIYAASSLQSGVPSRFSGSGSGTDFTLTISSLQPEDFATYYCQQSYITPFTFGPGTKVDIKR"
reported_value = 9.69

[[record]]
binder = "mAb15162 (antibody, V domains shown) VH: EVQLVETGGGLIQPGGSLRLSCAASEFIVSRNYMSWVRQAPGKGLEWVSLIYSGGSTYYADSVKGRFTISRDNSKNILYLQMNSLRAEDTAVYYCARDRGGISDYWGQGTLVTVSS VL: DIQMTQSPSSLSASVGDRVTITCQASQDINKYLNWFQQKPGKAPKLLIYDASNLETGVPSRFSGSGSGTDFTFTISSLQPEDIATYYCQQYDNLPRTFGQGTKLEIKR"
reported_value = 9.12

